# System: Oocyte
# EXPERIMENT_SUMMARY: Activity at Wistar rat cortex AMPA receptor expressed in Xenopus laevis oocytes assessed as maximum increase of (S)-AMPA-induced current
# Assay type: cell-based
Give measured Activity for each item. Keep answers brief.

Solved entries (count: 2):
| MOLECULE | Activity |
| --- | --- |
| NS(=O)(=O)c1cc2c(cc1Cl)NC(C1CC3C=CC1C3)NS2(=O)=O (stereo not drawn) [CYCLOTHIAZIDE] | 844% |
| CN1CN(C)S(=O)(=O)c2ccccc21 | > 1700% |

Give measured Activity for every item shown.
1. CCN1CNS(=O)(=O)c2cc(C(=O)Oc3ccccc3)ccc21
2. CN1CNS(=O)(=O)c2cc(Cl)ccc21
3. CN1CN(C)S(=O)(=O)c2cc(Cl)ccc21
4. CC1Nc2ccc(Cl)cc2S(=O)(=O)N1 (stereo not drawn)
5. CCN1CNS(=O)(=O)c2cc(C)ccc21
6. CCN1C=NS(=O)(=O)c2cc(Cl)ccc21
7. Cc1ccc2c(c1)S(=O)(=O)N=CN2C

### Response
1: > 600%; 2: 1740%; 3: > 1900%; 4: > 700%; 5: > 1300%; 6: > 400%; 7: > 600%
